target-of-assay: Mitogen-activated protein kinase 1 (Homo sapiens)
condition-info: Compound concentration 20.0 uM
Description: Thermal Shift Assay. Domain: start/stop: M1-S360
Each entry below carries its reported ΔTm.
Please respond with the number in °C and leave the unit unwritten.

molecule=CN(CCCN1c2ccccc2CCc2ccccc21)CC(=O)c1ccc(Cl)cc1 unit_of_measure=°C measured_value=0.76
molecule=CCCOc1cc(OCCCCN(C)C)cc(Oc2cc3c(cc2NS(=O)(=O)c2ccc(OC)c(OC)c2)n(C)c(=O)n3C)c1 unit_of_measure=°C measured_value=0
molecule=COc1ccc(-c2c(-c3ccc(C#N)c(F)c3)nc(N3CCC(N)CC3)n(C)c2=O)cc1F unit_of_measure=°C measured_value=0.2
molecule=CC(=O)N1CCC(c2ccc(C(=O)NC(=N)N)cc2C(F)(F)F)CC1 unit_of_measure=°C measured_value=0.47
molecule=Cc1ccc(F)c2cc(C(=O)N[C@@H]3CCC[C@H](N4CC[C@H](N(C)S(C)(=O)=O)C4)C3)[nH]c12 unit_of_measure=°C measured_value=-0.53

Any idea what its ΔTm is? The molecule is N[C@@H](CCCCNC(=O)OCc1ccc([N+](=O)[O-])cc1)C(=O)N1CCCC1
0.13

Any idea what its ΔTm is? The molecule is CCC[C@H]1CNCc2c1[nH]c(=O)c(C#N)c2N1CCC2(CC1)CC2
-0.08

Any idea what its ΔTm is? The molecule is N[C@@H](CCCCB(O)O)C(=O)O
0.18

Any idea what its ΔTm is? The molecule is NC(=O)C(CCCN=C(N)CCl)NC(=O)c1ccccc1 (stereo not given)
0.22

Any idea what its ΔTm is? The molecule is OC1CN=C2c3ccn([C@@H]4O[C@H]([C@H](O)c5ccc(Cl)cc5)[C@@H](O)[C@H]4O)c3N=CN21 (stereo not given in full)
0.16
